Source of measurements: patent US9273011B2

- Target Or Test System: human Autotaxin enzyme (Homo sapiens (Human), UniProt Q13822)
- Experiment Summary: Autotaxin FS-3 assay
- Assay type: biochemical
- Test Parameters: Autotaxin FS3 assay; human Autotaxin enzyme 2 nM; inhibition of FS-3 fluorescence; range and n in brackets
Property Measured: IC50 (nM)
Numbers only, in nM.

Examples from the recorded data:
Compound: Cc1ccc(F)c(CNc2ccc(C(=O)Nc3onc(C)c3C)nn2)c1F
Target Or Test System: human Autotaxin enzyme (Homo sapiens (Human), UniProt Q13822)
Unit String: nM
IC50: 103
--
Compound: COc1ccc(C(CCO)Nc2ccc(C(=O)Nc3onc(C)c3C)nn2)cc1 (stereo not shown)
Target Or Test System: human Autotaxin enzyme (Homo sapiens (Human), UniProt Q13822)
Unit String: nM
IC50: 69.5
--
Compound: Cc1noc(NC(=O)c2ccc(NC(C)c3ccc(Cl)cc3)nn2)c1C (stereo not shown)
Target Or Test System: human Autotaxin enzyme (Homo sapiens (Human), UniProt Q13822)
Unit String: nM
IC50: 100
--
Compound: Cc1onc(-c2ccccc2)c1CNc1ccc(C(=O)NCc2cc(F)cc(F)c2)nn1
Target Or Test System: human Autotaxin enzyme (Homo sapiens (Human), UniProt Q13822)
Unit String: nM
IC50: 646
--
Compound: Cc1noc(NC(=O)c2ccc(NC3CCN(Cc4ccccc4)C3)nn2)c1C (stereo not shown)
Target Or Test System: human Autotaxin enzyme (Homo sapiens (Human), UniProt Q13822)
Unit String: nM
IC50: 357
--
Compound: Cc1cc(NC(=O)c2ccc(NC(CO)Cc3ccc(Cl)cc3)nn2)n(C)n1 (stereo not shown)
Target Or Test System: human Autotaxin enzyme (Homo sapiens (Human), UniProt Q13822)
Unit String: nM
IC50: 507

Ask | I am curious: what IC50 value has been reported for CCN(Cc1ccncc1)c1ccc(C(=O)Nc2cc(-c3ccccc3)nn2C)nn1 ?
Reply | 65.2
